The molecules listed here are annotated with their GI50.
# Test system: SNB-78
# assay.name: NCI tumour cell line growth inhibition, 48 h
The source made the active and inactive calls. Rule as the data show it: active = GI50 up to about 1.1 µM and inactive = higher.
quantity: GI50

{"molecule": "O=C(CC1C(=O)Nc2ccccc2[S+]1[O-])Nc1cc(Cl)ccc1Cl (stereo unspecified)", "quantity": "GI50", "measured.result": "> 100 µM (inactive)"}
{"molecule": "C/C(=N\\NS(=O)(=O)c1ccc(C)cc1)C(CN(C)C)C(c1ccccc1)c1c(O)c2ccccc2oc1=O (stereo unspecified)", "quantity": "GI50", "measured.result": "> 100 µM (inactive)"}
{"molecule": "Cc1cc2c(=O)n(-c3ccc(F)cc3)c(C)nc2c(C(=O)O)c1C", "quantity": "GI50", "measured.result": "> 100 µM (inactive)"}
{"molecule": "O=C1C=C/C(=N\\c2ccc3c(c2)C(Br)c2ccccc2-3)O1 (stereo unspecified)", "quantity": "GI50", "measured.result": "> 100 µM (inactive)"}
{"molecule": "CSCSCC(CO)NC(=O)/C=C\\c1c(C)[nH]c(=O)[nH]c1=O (stereo unspecified)", "quantity": "GI50", "measured.result": "34.4 µM (inactive)"}
{"molecule": "CN1CCCNCCN(CCc2ccccn2)CCCN(C)CC1", "quantity": "GI50", "measured.result": "> 100 µM (inactive)"}

* * *

# Test system: Malme-3M
# assay.name: NCI tumour cell line growth inhibition, 48 h
The source made the active and inactive calls. Rule as the data show it: active = GI50 up to about 1.1 µM and inactive = higher. Starred links: 1 amine or outer side, 2 acyl side, 3 side chain; linkers in the order of their positions; H or OH if unused. Non-standard residues stand in square brackets, D forms with d. Residues, ends and D or L forms follow the SMILES beside them. X4 = C[C@H](N[*:1])C(=O)C(C)(C)C(=O)[*:2]; Hmpa(2S,3S) = CC[C@H](C)[C@H](O)C(=O)O; NMeY = CN[C@@H](Cc1ccc(O)cc1)C(=O)O; NMeL = CN[C@@H](CC(C)C)C(=O)O; NMeV = CN[C@H](C(=O)O)C(C)C; βAla = NCCC(=O)O
Outcomes: True (active), False (inactive)

{"molecule": "Cc1ccc(C(=O)N2CCCCC2)cc1/N=N/N(C)C", "class": "False"}
{"molecule": "CSCSCC(CO)NC(=O)/C=C\\c1c(C)[nH]c(=O)[nH]c1=O (stereo not drawn)", "class": "False"}
{"molecule": "COc1cc2c(cc1C)NC(=O)/C2=C/c1c(Cl)n(C)c2ccccc12", "class": "False"}
{"molecule": "CN1C(=O)c2ccccc2NC(=O)C12O[C@@H]2c1cccc(O)c1 (stereo partly drawn)", "class": "False"}
{"molecule": "CC(=O)O[C@H]1C(=O)[C@@]2(C)C(C(OC(=O)c3ccccc3)[C@]3(O)CC(OC(=O)C(O)C(NC(=O)c4cccc(Cl)c4)c4ccccc4)C(C)=C1C3(C)C)[C@]1(OC(C)=O)CO[C@@H]1C[C@@H]2O (stereo partly drawn)", "class": "False"}
{"molecule": "CO/N=C(\\C)c1cccc(Nc2c3ccccc3nc3occc23)c1", "class": "False"}
{"molecule": "O=C(O)CCC(=O)c1ccc2sc3ccccc3c2c1", "class": "False"}
{"molecule": "CC(C)c1cccc(C(C)C)c1NC(=O)C(=O)C(C(=O)c1ccccc1-c1ccccc1)C1OC(=O)c2ccccc21 (stereo not drawn)", "class": "False"}
{"molecule": "O=C(O)CCC(NC(=O)c1ccc(CNc2nc3ccccc3nc2C(=O)O)cc1)C(=O)O (stereo not drawn)", "class": "False"}
{"molecule": "COc1cc(C2C3=C(COC3=O)Oc3cc4c(cc32)OCO4)ccc1OC(C)=O (stereo not drawn)", "class": "True"}
{"molecule": "Cc1ccc(-c2nc3cc(Cl)ccc3[nH]2)cc1", "class": "False"}
{"molecule": "CN1CCCNCCN(CCc2ccccn2)CCCN(C)CC1", "class": "False"}
{"molecule": "Brc1ccc2[nH]cc(-c3nc(-c4c[nH]c5ccccc45)cs3)c2c1", "class": "False"}
{"molecule": "c1cc2nnc1SCCCSc1ccc(nn1)SCCCSc1ccc(nn1)SCCCS2", "class": "False"}
{"molecule": "O=C(CC1C(=O)Nc2ccccc2[S+]1[O-])Nc1cc(Cl)ccc1Cl (stereo not drawn)", "class": "False"}
{"molecule": "Cc1n(CC(C)C)c2c([n+]1C)C(=O)c1ccccc1C2=O", "class": "True"}
{"molecule": "CC[C@H](C)[C@@H]1OC(=O)CCNC(=O)[C@@H](C)NC(=O)C(C)(C)C(=O)[C@H](C)NC(=O)[C@H](Cc2ccc(OC)cc2)N(C)C(=O)[C@H](C(C)C)N(C)C(=O)CNC(=O)[C@H](CC(C)C)N(C)C(=O)CNC1=O (cyclo(G[NMeL]G[NMeV][NMeY](Me)[X4][dA][βAla][Hmpa(2S,3S)]))", "class": "True"}
{"molecule": "COc1cc(C(=O)Oc2c(C#N)sc3c2c(=O)n(-c2ccccc2)c(=S)n3-c2ccccc2)cc(OC)c1OC", "class": "False"}

Ref: ChEMBL document CHEMBL1201862
